Listed here are compounds together with their documented inhibition.
target: Glycogen synthase kinase-3 alpha (Homo sapiens) (UniProt P49840); experiment: blockers of GSK3A enzyme activity – biochemical, luminescence, cell-free homogeneous, HTS, primary screen (AID 2650); details: GSK-3 alpha kinase, ADP-Glo luminescence, 60 min; at 10 µM; stronger effect = higher value;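 note: GST-tagged GSK-3 alpha with peptide substrate and 25 µM ATP; 0% = DMSO neutral wells and 100% = GW8510 positive control wells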
Sequence (P49840 whole entry, looked up): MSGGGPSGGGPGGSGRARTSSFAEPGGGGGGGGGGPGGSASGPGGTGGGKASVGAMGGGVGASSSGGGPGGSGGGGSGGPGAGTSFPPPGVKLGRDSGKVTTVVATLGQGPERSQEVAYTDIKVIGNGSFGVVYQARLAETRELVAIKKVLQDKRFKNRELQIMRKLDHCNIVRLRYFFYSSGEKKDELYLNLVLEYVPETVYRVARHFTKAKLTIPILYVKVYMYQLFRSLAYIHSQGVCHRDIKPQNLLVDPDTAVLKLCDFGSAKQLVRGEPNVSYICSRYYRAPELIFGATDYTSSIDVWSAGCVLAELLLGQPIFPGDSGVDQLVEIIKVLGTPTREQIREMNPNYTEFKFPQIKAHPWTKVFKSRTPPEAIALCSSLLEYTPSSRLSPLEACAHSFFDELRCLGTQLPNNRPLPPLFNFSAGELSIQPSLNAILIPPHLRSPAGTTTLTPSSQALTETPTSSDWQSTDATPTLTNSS
In all, about 320,000 compounds went through this assay and about 320 (0.1%) were called active. For the sample, actives were picked, then their nearest neighbours and some compounds at random.
Give the quantity in %, number only.

Solved entries:
| COMPOUND | UNIT_SYMBOL | inhibition |
| --- | --- | --- |
| CC(C)(C)NS(=O)(=O)NC(=O)C1=C(N2CCCC2)COC1=O | % | -2.51 |
| CCOc1ccc(CCNC(=O)C(CC)n2nc(C)n3c(cc4sccc43)c2=O)cc1OCC (stereo not given) | % | 8.43 |
| COc1ccc(S(=O)(=O)N2CCN(C(C)C(=O)Nc3ccc(C(C)C)cc3)CC2)cc1 (stereo not given) | % | 1.33 |
| C=CCC[C@H](Cc1ccc(F)cc1)C(=O)OC[C@@H](NC(=O)[C@@H](CC=C)CC(=O)N[C@H](CO)Cc1ccccc1)C(C)(C)C | % | -1.79 |

input: Tell me measured inhibition for O=C(CSc1nc2nccnc2c(=O)n1Cc1cccs1)Nc1ccccc1F please.
output: 1.43

input: Tell us which inhibition value is on record for O=c1c2c3c(sc2n(CCN2CCCC2)c(=O)n1Cc1ccccc1)CCCCC3
output: 0.297

input: Supply recorded inhibition for O=C(CNC(=O)OCc1ccccc1)Oc1cc2oc(=O)cc(-c3ccccc3)c2cc1Cl here.
output: -0.182

input: Quickly give me recorded inhibition for Cc1ccccc1C(=O)N1CCC(C(=O)Oc2ccc(C#N)cc2)CC1
output: 3.01

input: Please report inhibition for the following compound: CN(CC1CCCN(CCc2cccc(C(F)(F)F)c2)C1)C(=O)c1ccc2nc[nH]c2c1 (stereo not given)
output: 2.9

input: Note inhibition for the compound shown: Cn1c(SCC(=O)Nc2nccs2)nnc1-c1cccnc1
output: 2.04
